test: ATG_TGFb_CIS: Attagene CIS-FACTORIAL HepG2 Assay for human Transforming Growth Factor (TGF) (AID 2282967); conditions: HepG2 Attagene CIS TGFb reporter, mRNA transcription; actives raise or lower the signal
The source made the active and inactive calls. How the source made its calls: active means hit-call score of the fitted dose curve at least 0.9, where 1 is the maximum; inactive means score below 0.9.
property: AC50

Worked cases, AC50 given:
# compound, AC50
rows = [
    ("Cc1cc(Cl)ccc1O", "inactive"),
    ("N#Cc1ccc(Cl)cc1", "inactive"),
    ("O=[N+]([O-])c1ccc(Cl)c([N+](=O)[O-])c1", "3.71 µM (active)"),
    ("C[As+](C)(C)CC(=O)[O-]", "inactive"),
    ("Clc1ccc(C(Cl)(Cl)Cl)cn1", "inactive"),
]

Look up AC50 for the entries below, preserving their order.
1. O=S(=O)(C(Cl)(Cl)Cl)C(Cl)(Cl)Cl
2. COC(=O)Nc1cccc(OC(=O)Nc2cccc(C)c2)c1
3. CC(C)O.CC(C)O.OCCN(CCO)CCO.OCCN(CCO)CCO.[Ti]
4. C[C@]12CC[C@@H](O)C[C@@H]1CC[C@@H]1[C@@H]2CC[C@]2(C)C(=O)CC[C@@H]12
5. CCCCCCCCBr
6. O=C=Nc1ccc(Cl)cc1
7. CC(O)(CS(=O)(=O)c1ccc(F)cc1)C(=O)Nc1ccc(C#N)c(C(F)(F)F)c1 (centres undefined)
8. CNC(=O)O/N=C/C(C)(C)S(C)(=O)=O

Result block:
1: inactive; 2: inactive; 3: inactive; 4: inactive; 5: inactive; 6: inactive; 7: inactive; 8: inactive

Give measured AC50 for every item shown.
1. C=CCc1ccccc1O
2. CCCSP(=S)(OCC)Oc1ccc(SC)cc1 (centres undefined)
3. C1CCC(C2CCCCC2)CC1
4. CC(C)C(C)(N)C#N (centres undefined)
5. Brc1c(Br)c(Br)c(Oc2c(Br)c(Br)c(Br)c(Br)c2Br)c(Br)c1Br
6. CCOC(=O)CC(=O)CCl

Result block:
["inactive", "100 µM (active)", "inactive", "inactive", "inactive", "36.1 µM (active)"]

Consider the following items and state reported AC50 for each.
1. Oc1c(Br)cc(Br)cc1Br
2. N#Cc1ccncc1
3. O=C1C=CC(=O)c2ccccc21
4. C=C(C)C(=O)OCC(CC)CCCC (centres undefined)
5. CNC(=O)CSP(=O)(OC)OC
6. CCOC(=O)C(SP(=S)(OC)OC)c1ccccc1 (centres undefined)

Result block:
1. 156 µM (active)
2. inactive
3. inactive
4. inactive
5. inactive
6. inactive

Required: AC50, one value per compound below.
1. CC(C)CP(=S)(S)CC(C)C
2. CCOC(=O)CCN(SN(C)C(=O)Oc1cccc2c1OC(C)(C)C2)C(C)C
3. CCOP(=S)(OCC)SCS(=O)(=O)C(C)(C)C
4. O=C1c2ccccc2C(=O)C1C(=O)C(c1ccccc1)c1ccc(Cl)cc1 (centres undefined)

Result block:
inactive
inactive
inactive
8.18 µM (active)

====

assay: ATG_VDRE_CIS: Attagene CIS-FACTORIAL HepG2 Assay for human Vitamin D Receptor Element (VDRE) (AID 2282968); settings: HepG2 VDRE cis-reporter transcription, actives raise or lower the signal
Active and inactive are the calls of the source. Rule for the calls: active = hit-call score of the fitted dose curve at least 0.9, where 1 is the maximum; inactive = score below 0.9.
property: AC50

Field: example entries. Status: answers known.
# compound, AC50
rows = [
    ("Cc1ccccc1OP(=O)(Oc1ccccc1C)Oc1ccccc1C", "0.533 µM (active)"),
    ("N#CS", "inactive"),
    ("C[C@@H]1O[C@@H](O[C@H]2C[C@@H](O)[C@]3(CO)[C@H]4[C@H](O)C[C@]5(C)[C@@H](C6=CC(=O)OC6)CC[C@]5(O)[C@@H]4CC[C@]3(O)C2)[C@H](O)[C@H](O)[C@H]1O", "inactive"),
    ("COc1ccc([N+](=O)[O-])cc1O", "inactive"),
    ("O=C(O)c1cc(I)cc(I)c1I", "inactive"),
]

State the recorded AC50 for every item in the following list.
1. CN(C)c1ccc(N=O)cc1
2. O=S(=O)(F)C(F)(F)C(F)(F)C(F)(F)C(F)(F)F
3. O=C(CCl)Nc1ccccc1
4. c1csc(-c2ccc(-c3cccs3)s2)c1
5. NC(=O)CCl
6. CCOc1cc(C=O)ccc1O

Result block:
1. inactive
2. inactive
3. 43.7 µM (active)
4. 3.41 µM (active)
5. inactive
6. inactive

For each of the compounds below, note its AC50.
1. CCN(N=O)C(N)=O
2. O=C1c2ccccc2C(=O)C1C(=O)C(c1ccccc1)c1ccc(Cl)cc1 (centres undefined)

Result block:
inactive
2.93 µM (active)

State recorded AC50 for all listed compounds.
1. O=CCCl
2. C=C(C)C(=O)OCC(CC)CCCC (centres undefined)
3. N#Cc1ccccc1Cl
4. Cc1cc(Cl)ccc1OCCCC(=O)O
5. Cc1ccccc1OP(=O)(Oc1ccccc1)Oc1ccccc1
6. Cc1cc(C)cc(C)c1
7. CCN(CCO)CCO

Result block:
32.3 µM (active)
inactive
inactive
inactive
1.25 µM (active)
inactive
inactive

Measured values drawn from PubChem BioAssay (EPA / NIEHS) for this set.
